The following compounds each carry a recorded Ki for UniProtKB P08254.
Numbers only, in µM.

In the examples that follow, each entry is paired with its recorded Ki.
CC(C)(C)OC(=O)NC(C(=O)Nc1n[nH]c(=S)s1)c1ccccc1 (stereo not drawn) [Example 24] = 1.98
CC(C)(C)OC(=O)NC(C(=O)Nc1n[nH]c(=S)s1)C(C)(C)/C=C\c1ccccc1 (stereo not drawn) [Example 18] = 1.8
O=C(CC(NC(=O)c1ccccc1)c1ccccc1)Nc1n[nH]c(=S)s1 (stereo not drawn) [Example 42] = 1.36
O=C(N[C@@H](Cc1c[nH]c2ccccc12)C(=O)Nc1n[nH]c(=S)s1)OCc1ccccc1 [Example 33] = 10.2
O=C(N[C@@H](CCc1ccccc1)C(=O)Nc1n[nH]c(=S)s1)OCc1ccccc1 [Example 2] = 13.9

// each listed compound needs a value for Ki
1. O=C(NCC(Cc1ccccc1)C(=O)Nc1n[nH]c(=S)s1)OCc1ccccc1 (stereo not drawn) [Example 39]
2. O=C(CC(NC(=O)OCC1c2ccccc2-c2ccccc21)c1ccccc1)Nc1n[nH]c(=S)s1 (stereo not drawn) [Example 46]
3. CC(C)(C)[C@H](NC(=O)CCc1ccccc1)C(=O)Nc1n[nH]c(=S)s1 [Example 26]
4. C=CC(C)(C)C(NC(=O)OC(C)(C)C)C(=O)Nc1n[nH]c(=S)s1 (stereo not drawn) [Example 22]
5. CC(C)(C)[C@H](NC(=O)OCc1ccccc1)C(=O)Nc1n[nH]c(=S)s1 [Example 6]
6. O=C(CC(NC(=O)COc1ccccc1)c1ccccc1)Nc1n[nH]c(=S)s1 (stereo not drawn) [Example 48]

1: 1.32; 2: 0.44; 3: 0.24; 4: 3.51; 5: 0.53; 6: 0.313

Dear reader, for each entry below, please note its Ki.
1. CC(=O)NCSC(C)(C)C(NC(=O)OCc1ccccc1)C(=O)Nc1n[nH]c(=S)s1 (stereo not drawn) [Example 17]
2. CC(C)(C)OC(=O)NC(C(=O)Nc1n[nH]c(=S)s1)C(C)(C)CCCc1ccccc1 (stereo not drawn) [Example 21]
3. O=C(CCCCc1ccccc1)NC(C(=O)Nc1n[nH]c(=S)s1)c1ccccc1 (stereo not drawn) [Example 15]
4. CC(C)(C)[C@H](NC(=O)OCC1c2ccccc2-c2ccccc21)C(=O)Nc1n[nH]c(=S)s1 [Example 37]
5. O=C(NCC(C(=O)Nc1n[nH]c(=S)s1)c1ccccc1)OCc1ccccc1 (stereo not drawn) [Example 38]
6. CC(C)C[C@H](NC(=O)OCc1ccccc1)C(=O)Nc1n[nH]c(=S)s1 [Example 35]
7. CC(C)(C)OC(=O)N[C@@H](Cc1c(F)c(F)c(F)c(F)c1F)C(=O)Nc1n[nH]c(=S)s1 [Example 28]

1.77
2.72
1.38
0.12
2.27
2.22
2.22

* * *

Measurement record for Stromelysin (Homo sapiens, UniProt P08254); quantity recorded: Ki.
One number for each entry, in µM.

Example results:
O=C(N[C@H]1CCCC[C@H]1C(=O)Nc1n[nH]c(=S)s1)OCC1c2ccccc2-c2ccccc21 = 15
CC(C)(C)OC(=O)NC(CC(=O)Nc1n[nH]c(=S)s1)c1ccccc1 (stereo not drawn) = 0.72
CCOC(=O)C(Cc1ccccc1)C(=O)Nc1n[nH]c(=S)s1 (stereo not drawn) = 4.05
CCCCCCCC(NC(=O)OCc1ccccc1)C(=O)Nc1n[nH]c(=S)s1 (stereo not drawn) = 6.32
O=C(N[C@@H](CC1CCCCC1)C(=O)Nc1n[nH]c(=S)s1)OCc1ccccc1 = 6.1

Please look at the items below and tell me Ki for each one, in order.
1. O=C(C[C@@H](NC(=O)OCc1ccccc1)c1ccccc1)Nc1n[nH]c(=S)s1
2. CC[C@H](C)[C@H](NC(=O)OCC1c2ccccc2-c2ccccc21)C(=O)Nc1n[nH]c(=S)s1
3. COCC(=O)NC(CC(=O)Nc1n[nH]c(=S)s1)c1ccccc1 (stereo not drawn)
4. O=C(N[C@H](C(=O)Nc1n[nH]c(=S)s1)C1CCCCC1)OCc1ccccc1

1: 0.26; 2: 0.95; 3: 1.36; 4: 0.84

From: patent US5830869A
